- assayText: Cell viability by CCK-8, HEK-Blue hTLR4 cells
- Type: cell-based
- testConditions: human, Viability Cell (%) HEK-Blue hTLR4 Without LPS
- Protocol: The viability of HEK-Blue^TM hTLR4, […], and THP-1 cells was evaluated using the Dojindo Cell Counting Kit-8 (CCK-8) according to the manufacturer’s instructions. The viability of HEK-Blue^TM hTLR4 and THP-1 cells was assessed under identical conditions to the corresponding assay treatments. […] After 18 h of incubation, a 10% (v/v) CCK-8 solution was added to each well and incubated at 37 °C for 1 h, and cell viability was calculated.
# viability at 18 h, 20 µM values compiled below

• CC(=O)O[C@@H]1C[C@H]2C(C)(C)C(=O)C=C[C@]2(C)[C@H]2CC[C@]3(C)C(C(=O)C[C@H]3c3ccoc3)[C@@]21C (stereo partly drawn) [Compound 2, 7α-acetylneotrichilenone] = 61.2%
• CC(=O)O[C@@H]1[C@H](O)[C@H]2C(C)(C)C(=O)C=C[C@]2(C)[C@H]2CC[C@]3(C)C(=CC[C@H]3c3ccoc3)[C@]12C [Compound 9, nimonol] = > 99.9%
• CC1(C)C(=O)C=C[C@]2(C)[C@H]3CC[C@]4(C)C(C(=O)C[C@H]4c4ccoc4)[C@]3(C)[C@H](O)C[C@@H]12 (stereo partly drawn) [Compound 1, 7α-hydroxyneotrichilenone] = > 99.9%
• CC(=O)O[C@@H]1C[C@H]2C(C)(C)C(=O)C=C[C@]2(C)[C@H]2CC[C@@]3(C)[C@H](c4ccoc4)C[C@H]4O[C@]43[C@@]21C [Compound 13, trichilenone acetate] = 92.4%

--- query ---
The value of viability at 18 h, 20 µM measured for the molecule CC(=O)O[C@H]1[C@@H](OC(C)=O)[C@]2(C)[C@H](CC[C@@]3(C)[C@H](c4ccoc4)C(=O)[C@H]4O[C@@]423)[C@@]2(C)C=CC(=O)C(C)(C)[C@H]12 [Compound 10, 6α-acetylepoxyazadirone] turned out to be > 99.9%

---

- assayText: Cytotoxic effects against RAW264.7 macrophage (cell viability)
- Type: cell-based
- testConditions: mouse, RAW264.7 macrophages; 20 µM; read-out: Viability cell (%) RAW 264.7 20 µM
# viability at 20 µM values compiled below

* CC(=O)O[C@H]1[C@@H](OC(C)=O)[C@]2(C)[C@H](CCC3=C(c4ccoc4)C[C@@H](O)[C@]32C)[C@@]2(C)C=CC(=O)C(C)(C)[C@H]12 | 87.5%

--- query ---
The value of viability at 20 µM measured for the molecule COc1cc([C@@H]2c3cc4c(cc3[C@@H](O[C@@H]3O[C@@H]5CO[C@@H](C)O[C@H]5[C@H](O)[C@H]3O)[C@H]3COC(=O)[C@H]23)OCO4)cc(OC)c1O [Etoposide, reference compound] turned out to be 38.9%

---

- assayText: Cytotoxic effects against RAW264.7 macrophage (cell viability)
- Type: cell-based
- testConditions: mouse; 5 µM; read-out: Viability cell (%) RAW 264.7 5 µM
parameterMeasured: viability at 5 µM (%)
Number in %, nothing else.

The value of viability at 5 µM measured for the compound CC(=O)O[C@H]1[C@@H](OC(C)=O)[C@@]2(C)C3=CC[C@@H](C4=CCOC4=O)[C@]3(C)CC[C@@H]2[C@@]2(C)C=CC(=O)C(C)(C)[C@H]12 [Compound 6, lasiocarpine A] turned out to be 103

---

- assayText: Cell viability by CCK-8, THP-1 cells
- Type: cell-based
- testConditions: human, PMA-differentiated THP-1 cells; concentration causing 50% cytotoxicity against THP-1 cells
# CC50 at 18 h values compiled below
Number in µM, nothing else.

Guide cases for CC50 at 18 h, answers given:
- C[C@@H]1C[C@H]2[C@@H]3CCC4=CC(=O)C=C[C@]4(C)[C@@]3(F)[C@@H](O)C[C@]2(C)[C@@]1(O)C(=O)CO [Dex, dexamethasone, reference compound]: 28.2
- CC(=O)O[C@@H]1C[C@H]2C(C)(C)C(=O)C=C[C@]2(C)[C@H]2CC[C@]3(C)C(=CC[C@H]3C3CCOC3=O)[C@@]21C (stereo partly drawn) [Compound 15, pentandricine B]: 96.6

--- query ---
The value of CC50 at 18 h measured for the compound CC(=O)O[C@H]1[C@@H](OC(C)=O)[C@@]2(C)C3=CC[C@@H](c4ccoc4)[C@]3(C)CC[C@@H]2[C@@]2(C)C=CC(=O)C(C)(C)[C@H]12 [Compound 5, dysobinin] turned out to be 14.6

---

- assayText: Cytotoxic effects against RAW264.7 macrophage (cell viability)
- Format: cell-based
- testConditions: mouse, RAW264.7 macrophages; 10 µM; read-out: Viability cell (%) RAW 264.7 10 µM
- Procedure: The viability of HEK-Blue^TM hTLR4, […], and THP-1 cells was evaluated using the Dojindo Cell Counting Kit-8 (CCK-8) according to the manufacturer’s instructions. The viability of HEK-Blue^TM hTLR4 and THP-1 cells was assessed under identical conditions to the corresponding assay treatments. […] After 18 h of incubation, a 10% (v/v) CCK-8 solution was added to each well and incubated at 37 °C for 1 h, and cell viability was calculated.
parameterMeasured: viability at 10 µM (%)
Number in %, nothing else.

* COc1cc([C@@H]2c3cc4c(cc3[C@@H](O[C@@H]3O[C@@H]5CO[C@@H](C)O[C@H]5[C@H](O)[C@H]3O)[C@H]3COC(=O)[C@H]23)OCO4)cc(OC)c1O [Etoposide, reference compound] | 54.8

--- query ---
The value of viability at 10 µM measured for the compound CC(=O)O[C@H]1[C@@H](OC(C)=O)[C@]2(C)[C@H](CCC3=C(c4ccoc4)C[C@@H](O)[C@]32C)[C@@]2(C)C=CC(=O)C(C)(C)[C@H]12 turned out to be 94.8

---

- assayText: Cell viability by CCK-8, HEK-Blue hTLR4 cells
- Format: cell-based
- testConditions: human, Viability Cell (%) HEK-Blue hTLR4 Without LPS
# viability at 18 h, 20 µM values compiled below

Guide cases for viability at 18 h, 20 µM, answers given:
• CC(=O)O[C@@H]1C[C@H]2C(C)(C)C(=O)C=C[C@]2(C)[C@H]2CC[C@]3(C)C(=CC[C@H]3C3CCOC3=O)[C@@]21C (stereo partly shown) = > 99.9%
• C[C@]12C3=CC[C@@H](c4ccoc4)[C@]3(C)CC[C@@H]1[C@@]1(C)C(=O)C=C[C@@]3(C)CO[C@@H]([C@H]2O)[C@H]13 = > 99.9%
• CC1(C)C(=O)C=C[C@]2(C)[C@H]3CC[C@]4(C)C(=CC[C@H]4C4CCOC4=O)[C@]3(C)[C@H](O)C[C@@H]12 (stereo partly shown) = > 99.9%

--- query ---
The value of viability at 18 h, 20 µM measured for the compound CC(=O)O[C@H]1[C@@H](O)[C@@]2(C)C3=CC[C@@H](c4ccoc4)[C@]3(C)CC[C@@H]2[C@@]2(C)C=CC(=O)C(C)(C)[C@H]12 turned out to be 20.7%

---

- assayText: Cell viability by CCK-8, THP-1 cells
- Format: cell-based
- testConditions: human, PMA-differentiated THP-1 cells, 10 µM, 18 h, without LPS; read-out: Viability Cell (%) THP-1 Without LPS
parameterMeasured: viability at 18 h, 10 µM

Guide cases for viability at 18 h, 10 µM, answers given:
* CC(=O)O[C@H]1[C@@H](OC(C)=O)[C@]2(C)[C@H](CCC3=C(c4ccoc4)C[C@@H](O)[C@]32C)[C@@]2(C)C=CC(=O)C(C)(C)[C@H]12 [Compound 8, toonaciliatone C] | > 99.9%
* CC(=O)O[C@H]1[C@@H](OC(C)=O)[C@@]2(C)C3C(=O)C[C@@H](c4ccoc4)[C@]3(C)CC[C@@H]2[C@@]2(C)C=CC(=O)C(C)(C)[C@H]12 (stereo partly shown) [Compound 7, toonaciliatone F] | > 99.9%
* CC(=O)O[C@@H]1C[C@H]2C(C)(C)C(=O)C=C[C@]2(C)[C@H]2CC[C@@]3(C)[C@H](c4ccoc4)C[C@H]4O[C@]43[C@@]21C [Compound 13, trichilenone acetate] | 90.8%
* CC(=O)O[C@@H]1[C@H](O)[C@H]2C(C)(C)C(=O)C=C[C@]2(C)[C@H]2CC[C@]3(C)C(=CC[C@H]3c3ccoc3)[C@]12C [Compound 9, nimonol] | > 99.9%

The value of viability at 18 h, 10 µM measured for the molecule CC(=O)O[C@@H]1C[C@H]2C(C)(C)C(=O)C=C[C@]2(C)[C@H]2CC[C@]3(C)C(=CC[C@H]3C3CCOC3=O)[C@@]21C (stereo partly shown) [Compound 15, pentandricine B] turned out to be > 99.9%

The value of viability at 18 h, 10 µM measured for the molecule C[C@]12C3=CC[C@@H](c4ccoc4)[C@]3(C)CC[C@@H]1[C@@]1(C)C(=O)C=C[C@@]3(C)CO[C@@H]([C@H]2O)[C@H]13 [Compound 12, ceramicine B] turned out to be > 99.9%

The value of viability at 18 h, 10 µM measured for the molecule CC(=O)O[C@H]1[C@@H](OC(C)=O)[C@@]2(C)C3=CC[C@@H](c4ccoc4)[C@]3(C)CC[C@@H]2[C@@]2(C)C=CC(=O)C(C)(C)[C@H]12 [Compound 5, dysobinin] turned out to be 66.7%
